method: Pharmacokinetics of parent HHQ16 after single intragastric administration of compound 2 prodrugs in rats
Type: in vivo, rat
particulars: HHQ16 (parent) measured in rats after single intragastric 10 mg/kg of prodrug (dose converted to HHQ16)
Reported AUC0-t values for the following molecules.

A selection of reference data follows.
Consider Br.CC(C)(O)C1CCC(C)(C2C(O)CC3(C)C4CC(OC(=O)CN)C5C(C)(C)C(F)(F)CCC56CC46CCC23C)O1 (stereo not shown) . Its measured AUC0-t is 4623 ng·h/mL

Please fill in: AUC0-t reported for CC(C)(O)[C@@H]1CC[C@@](C)([C@H]2[C@@H](O)C[C@@]3(C)[C@@H]4C[C@H](OC(=O)[C@@H](N)CO)[C@H]5C(C)(C)C(F)(F)CC[C@@]56C[C@@]46CC[C@]23C)O1.Cl = 4400 ng·h/mL

More entries:
// AUC0-t value for CC(C)C(N)C(=O)OC1CC2C3(C)CC(O)C(C4(C)CCC(C(C)(C)O)O4)C3(C)CCC23CC32CCC(F)(F)C(C)(C)C12.Cl (mixture of isomers) : 4500 ng·h/mL

CC(C)(O)[C@@H]1CC[C@@](C)([C@H]2[C@@H](O)C[C@@]3(C)[C@@H]4C[C@H](OC(=O)CNC(=O)[C@@H](N)CO)[C@H]5C(C)(C)C(F)(F)CC[C@@]56C[C@@]46CC[C@]23C)O1.Cl yielded AUC0-t of 3888 ng·h/mL
